Numbers sourced from patent US8765949B2.

So I've got a bunch of compounds here, and I need their Ki values.
biological target: CCR2 (Homo sapiens); construct: Membranes were prepared from THP-1 cells; endogenous in cells; test: CCR2 receptor membrane binding assay ([125I]MCP-1, THP-1 membranes, SPA beads); conditions: dissociation constant hKi; THP-1 cell membranes, [125I]MCP-1, bound radioactivity after 8 h
Value expressed in nM; do not type the unit.

Recorded Ki (compound CO[C@H]1COCC[C@H]1NC1CCN(C(=O)c2ncnc(NC[C@@H]3CCC[C@H](c4ccc(Cl)cc4)O3)c2C)CC1 [Example 44] ): 166

Recorded Ki (compound CO[C@@H]1COCC[C@@H]1NC1CCN(C(=O)c2ncnc(NC[C@H]3CCC[C@@H](c4ccc(SC(F)(F)F)cc4)O3)c2C)CC1 [Example 53am] ): 0.3

Recorded Ki (compound CO[C@@H]1COCC[C@@H]1NC1CCN(C(=O)c2cc(NC[C@H]3CCC[C@@H](c4ccc(C)cc4)O3)ncn2)CC1 [Example 28i] ): 221

###

target: CCR2 (Homo sapiens); construct: Membranes were prepared from THP-1 cells; endogenous in cells; assay: CCR2 receptor membrane binding assay ([125I]MCP-1, THP-1 membranes, SPA beads); details: dissociation constant hKi; THP-1 cell membranes, [125I]MCP-1, bound radioactivity after 8 h
Reported Endpoint: pKi
Conceptually, pKi converts a concentration in mol/L into minus its log10.

Recorded pKi (molecule Cc1ccc(C2CCC[C@H](CNc3ncnc(C(=O)N4CCC(N5CCC(c6cccc(C(=O)O)c6)CC5)CC4)c3C)O2)cc1 (stereo partly shown) ): 6.10

Recorded pKi (molecule Cc1ccc([C@H]2CCC[C@@H](CNc3ncnc(C(=O)N4CCC(N5CCC(N(C)S(C)(=O)=O)CC5)CC4)c3C)O2)cc1F [Example 28d] ): 7.92

Recorded pKi (molecule CO[C@@H]1COCC[C@@H]1NC1CCN(C(=O)c2cc(NC[C@H]3CCC[C@@H](c4ccc(C(F)(F)F)cc4)O3)ncn2)CC1 [Example 28j] ): 9.00

Recorded pKi (molecule CO[C@@H]1COCC[C@@H]1NC1CCN(C(=O)c2cc(NC[C@H]3CCC[C@@H](c4ccc(OC(F)(F)F)cc4)O3)ncn2)CC1 [Example 28m] ): 9.00

###

biological target: CCR2 (Homo sapiens, UniProt P41597); construct: Membranes were prepared from THP-1 cells; endogenous in cells; experiment: CCR2 receptor membrane binding assay ([125I]MCP-1, THP-1 membranes, SPA beads); conditions: dissociation constant hKi; THP-1 cell membranes, [125I]MCP-1, bound radioactivity after 8 h
Sequence (P41597 1-360 isoform P41597-2): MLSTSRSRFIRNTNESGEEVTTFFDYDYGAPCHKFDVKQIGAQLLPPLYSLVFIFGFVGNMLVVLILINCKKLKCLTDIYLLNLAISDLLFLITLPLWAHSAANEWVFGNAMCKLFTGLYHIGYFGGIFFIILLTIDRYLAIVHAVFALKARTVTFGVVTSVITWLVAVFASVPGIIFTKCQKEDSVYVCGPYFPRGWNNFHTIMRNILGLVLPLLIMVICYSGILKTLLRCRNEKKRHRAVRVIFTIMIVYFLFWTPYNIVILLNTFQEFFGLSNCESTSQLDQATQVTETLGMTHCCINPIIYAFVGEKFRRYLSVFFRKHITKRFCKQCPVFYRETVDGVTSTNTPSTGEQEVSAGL
Label YES when Ki < 0.01 µM; otherwise NO.

State whether 0.01 µM exceeds Ki recorded for Cc1c(NCC2CCCC(c3ccccc3)O2)ncnc1C(=O)N1CCC(N2CCC(N(C)S(C)(=O)=O)CC2)CC1 (stereo not drawn) .
NO

State whether 0.01 µM exceeds Ki recorded for Cc1ccc([C@@H]2CCC[C@H](CNc3ncnc(C(=O)N4CCC(N5CCC(N(C)S(C)(=O)=O)CC5)CC4)c3C)O2)cc1 [Example 17] .
NO

State whether 0.01 µM exceeds Ki recorded for Cc1ccc([C@@H]2CCC[C@H](CNc3ncnc(C(=O)N4CCC(N5CCC(NS(C)(=O)=O)CC5)CC4)c3C)O2)cc1 .
NO

State whether 0.01 µM exceeds Ki recorded for CO[C@H]1COCC[C@H]1NC1CCN(C(=O)c2cc(NC[C@H]3CCC[C@@H](c4ccc(OC(F)(F)F)cc4)O3)nc(C(F)(F)F)n2)CC1 [Example 53m] .
YES

State whether 0.01 µM exceeds Ki recorded for COc1nc(NC[C@H]2CCC[C@@H](c3ccc(C)cc3)O2)cc(C(=O)N2CCC(N[C@H]3CCOC[C@H]3OC)CC2)n1 [Example 53n] .
YES

State whether 0.01 µM exceeds Ki recorded for CO[C@H]1COCC[C@H]1NC1CCN(C(=O)c2ncnc(NC[C@@H]3CCC[C@H](c4cccc(C(F)(F)F)c4)O3)c2C)CC1 .
NO

###

molecular target: CCR2 (Homo sapiens, UniProt P41597); construct: Membranes were prepared from THP-1 cells; endogenous in cells; experiment: CCR2 receptor membrane binding assay ([125I]MCP-1, THP-1 membranes, SPA beads); settings: dissociation constant hKi; THP-1 cell membranes, [125I]MCP-1, bound radioactivity after 8 h
Reported Endpoint: pKi
Conceptually, pKi converts a concentration in mol/L into minus its log10.

Recorded pKi (compound COc1nc(NC[C@H]2CCC[C@@H](c3ccc(C(F)(F)F)cc3)O2)c(C)c(C(=O)N2CCC(N[C@H]3CCOC[C@H]3OC)CC2)n1 [Example 53ac] ): 9.10

Recorded pKi (compound COc1nc(NC[C@H]2CCC[C@@H](c3ccc(OC(F)(F)F)cc3)O2)cc(C(=O)N2CCC(N[C@H]3CCOC[C@H]3OC)CC2)n1 [Example 53r] ): 9.10

Recorded pKi (compound CO[C@@H]1COCC[C@@H]1NC1CCN(C(=O)c2ncnc(NC[C@@H]3CCC[C@H](c4cccc(C(F)(F)F)c4)O3)c2C)CC1 ): 8.22

Recorded pKi (compound COC1COCCC1NC1CCN(C(=O)c2ncnc(NCC3CCCC(c4ccc(C(F)(F)F)o4)O3)c2C)CC1 (centres unmarked) [Example 28e] ): 7.70

Recorded pKi (compound CO[C@H]1COCC[C@H]1NC1CCN(C(=O)c2cc(NC[C@H]3CCC[C@@H](c4ccc(OC(F)(F)F)cc4)O3)ncn2)CC1 [Example 28l] ): 8.70

###

target: CCR2 (Homo sapiens, UniProt P41597); construct: Membranes were prepared from THP-1 cells; endogenous in cells; assay: CCR2 receptor membrane binding assay ([125I]MCP-1, THP-1 membranes, SPA beads); conditions: dissociation constant hKi; THP-1 cell membranes, [125I]MCP-1, bound radioactivity after 8 h
Reported Ki maps to class as: Low: < 20 nM; Mid: ≥ 20 nM and < 200 nM; High: ≥ 200 nM

Which category fits this record: Cc1ccc([C@H]2CCC[C@@H](CNc3ncnc(C(=O)N4CCC(N5CCC(N(C)S(C)(=O)=O)CC5)CC4)c3C)O2)cc1
Mid

Which category fits this record: CO[C@H]1COCC[C@H]1N(C)C1CCN(C(=O)c2ncnc(NC[C@H]3CCC[C@@H](c4ccc(C(F)(F)F)cc4)O3)c2C)CC1 [Example 54a]
Low

Which category fits this record: Cc1c(NC[C@@H]2CCC[C@H](c3ccc(C(F)(F)F)cc3)O2)ncnc1C(=O)N1CCC(N2CCC(N(C)S(C)(=O)=O)CC2)CC1
Mid

Which category fits this record: Cc1c(NC[C@@H]2CCC[C@H](c3cccc(C(F)(F)F)c3)O2)ncnc1C(=O)N1CCC(N2CCC(N(C)S(C)(=O)=O)CC2)CC1 [Example 28a]
Mid

Which category fits this record: Cc1ccc(C2CCC[C@H](CNc3ncnc(C(=O)N4CCC(N5CCCC(c6cccc(C(=O)O)c6)C5)CC4)c3C)O2)cc1 (stereo partly shown)
High

Which category fits this record: Cc1c(NC[C@@H]2CCC[C@H](c3ccccc3)O2)ncnc1C(=O)N1CCC(N2CCC(N(C)S(C)(=O)=O)CC2)CC1 (single isomer, unassigned) [Example 13]
High

Which category fits this record: CCS(=O)(=O)N(C)C1CCN(C2CCN(C(=O)c3ncnc(NC[C@H]4CCC[C@@H](c5ccc(Cl)cc5)O4)c3C)CC2)CC1
Low

Which category fits this record: Cc1c(NC[C@H]2CCC[C@@H](c3cccc(C(F)(F)F)c3)O2)ncnc1C(=O)N1CCC(N2CCC(N(C)S(C)(=O)=O)CC2)CC1
Mid

Which category fits this record: CO[C@@H]1COCC[C@@H]1NC1CCN(C(=O)c2ncnc(NC[C@@H]3CCC[C@H](c4ccc(OC(F)(F)F)cc4)O3)c2C)CC1 [Example 53d]
Low

Which category fits this record: CO[C@H]1COCC[C@H]1N(C)C1CCN(C(=O)c2ncnc(NC[C@H]3CCC[C@@H](c4ccc(C)cc4)O3)c2C)CC1
Mid

Which category fits this record: Cc1ccc(C2CCC[C@H](CNc3ncnc(C(=O)N4CCC(N5CCC(c6ccccc6C(=O)O)C5)CC4)c3C)O2)cc1 (stereo partly shown)
High

Which category fits this record: Cc1c(NC[C@@H]2CCC[C@H](c3ccc(Cl)cc3)O2)ncnc1C(=O)N1CCC(N2CCC(N(C)S(C)(=O)=O)CC2)CC1
Mid

Which category fits this record: CO[C@H]1COCC[C@H]1NC1CCN(C(=O)c2ncnc(NC[C@H]3CCC[C@@H](c4ccccc4)O3)c2C)CC1
Mid

Which category fits this record: CO[C@@H]1COCC[C@@H]1NC1CCN(C(=O)c2ccnc(NC[C@H]3CCC[C@@H](c4ccc(C)cc4)O3)c2C)CC1 [Example 53a]
Low

Which category fits this record: COc1nc(NC[C@H]2CCC[C@@H](c3ccc(C(F)(F)F)cc3)O2)cc(C(=O)N2CCC(N[C@H]3CCOC[C@H]3OC)CC2)n1 [Example 53p]
Low

Which category fits this record: CO[C@H]1COCC[C@H]1NC1CCN(C(=O)c2ncnc(NC[C@H]3CCC[C@@H](c4cccc(C)c4)O3)c2C)CC1
Low
